SYSTEM TESTED: Metabotropic glutamate receptor 5 (Homo sapiens, UniProt P41594)
Sequence (P41594 21-1212 limits assumed): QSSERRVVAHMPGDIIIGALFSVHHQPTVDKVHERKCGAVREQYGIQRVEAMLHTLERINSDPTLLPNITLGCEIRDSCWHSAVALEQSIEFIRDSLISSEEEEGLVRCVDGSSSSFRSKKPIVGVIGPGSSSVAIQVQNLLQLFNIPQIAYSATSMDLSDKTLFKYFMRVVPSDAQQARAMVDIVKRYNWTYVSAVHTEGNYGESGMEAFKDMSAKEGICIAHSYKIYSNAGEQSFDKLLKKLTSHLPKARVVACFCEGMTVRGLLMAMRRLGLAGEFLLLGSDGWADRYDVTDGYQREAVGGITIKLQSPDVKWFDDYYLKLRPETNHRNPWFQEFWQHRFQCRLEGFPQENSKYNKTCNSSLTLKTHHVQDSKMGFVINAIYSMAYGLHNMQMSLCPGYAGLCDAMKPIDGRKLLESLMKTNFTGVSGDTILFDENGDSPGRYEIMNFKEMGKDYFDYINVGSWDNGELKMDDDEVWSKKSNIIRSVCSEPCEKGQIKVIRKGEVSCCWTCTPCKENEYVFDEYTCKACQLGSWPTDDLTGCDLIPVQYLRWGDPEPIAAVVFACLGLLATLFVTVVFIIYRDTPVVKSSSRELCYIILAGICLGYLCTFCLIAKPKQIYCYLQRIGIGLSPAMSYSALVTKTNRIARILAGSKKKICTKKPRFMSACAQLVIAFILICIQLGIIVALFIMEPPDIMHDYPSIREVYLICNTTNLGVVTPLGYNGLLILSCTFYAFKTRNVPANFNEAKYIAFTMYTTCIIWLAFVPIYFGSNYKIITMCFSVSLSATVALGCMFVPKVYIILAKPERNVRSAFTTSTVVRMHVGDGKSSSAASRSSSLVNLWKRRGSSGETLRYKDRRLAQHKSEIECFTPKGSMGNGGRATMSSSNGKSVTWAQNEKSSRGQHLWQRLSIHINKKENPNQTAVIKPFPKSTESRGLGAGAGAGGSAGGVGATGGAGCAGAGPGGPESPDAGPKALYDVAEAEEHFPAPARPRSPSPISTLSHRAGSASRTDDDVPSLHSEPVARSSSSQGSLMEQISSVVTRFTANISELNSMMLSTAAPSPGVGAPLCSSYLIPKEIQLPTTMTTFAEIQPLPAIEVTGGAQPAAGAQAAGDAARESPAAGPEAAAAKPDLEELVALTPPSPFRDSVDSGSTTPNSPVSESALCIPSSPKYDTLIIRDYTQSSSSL
ASSAY NOTES: Positive allosteric modulation of human mGlu5 expressed in HEK293 cells assessed as calcium mobilization relative to glutamate
Format: functional, cell-based
A collection of molecules and their measured %max

| MOLECULE | SYSTEM TESTED | RELATIONAL OPERATOR | %max [%] |
| --- | --- | --- | --- |
| CC(=O)N1CCCn2nc(COc3ccccc3F)cc21 | Metabotropic glutamate receptor 5 (Homo sapiens, UniProt P41594) | = | 60 |
| O=C(c1ccno1)N1CCCn2nc(COc3ccccc3)cc21 | Metabotropic glutamate receptor 5 (Homo sapiens, UniProt P41594) | = | 22 |
| CC(=O)N1c2cc(COc3ccccc3)nn2CCC1c1ccccc1 (configuration not stated) | Metabotropic glutamate receptor 5 (Homo sapiens, UniProt P41594) | = | 38 |
| CC(=O)N1CCCn2nc(COc3cc(F)cc(C#N)c3)cc21 | Metabotropic glutamate receptor 5 (Homo sapiens, UniProt P41594) | = | 39 |
| CC(C)C(=O)N1CCCn2nc(COc3ccccc3)cc21 | Metabotropic glutamate receptor 5 (Homo sapiens, UniProt P41594) | = | 59 |
| CC(=O)N1CCCn2nc(CNc3ccccc3)cc21 | Metabotropic glutamate receptor 5 (Homo sapiens, UniProt P41594) | = | 20 |
| O=C(C1CC1)N1CCCn2nc(COc3ccccc3)cc21 | Metabotropic glutamate receptor 5 (Homo sapiens, UniProt P41594) | = | 61 |
| CC(=O)N1CCCn2nc(CN3CCc4ccccc43)cc21 | Metabotropic glutamate receptor 5 (Homo sapiens, UniProt P41594) | < | 15 |
| O=C(c1nccs1)N1CCCn2nc(COc3ccccc3)cc21 | Metabotropic glutamate receptor 5 (Homo sapiens, UniProt P41594) | = | 24 |
| CC(=O)N1CCCn2nc(CN(C)C3C4CC3C4)cc21 (configuration not stated) | Metabotropic glutamate receptor 5 (Homo sapiens, UniProt P41594) | < | 15 |
| CC(=O)N1CCCn2nc(CSc3ccccc3)cc21 | Metabotropic glutamate receptor 5 (Homo sapiens, UniProt P41594) | = | 39 |
| CC(=O)N1CCCn2nc(COc3cccnc3)cc21 | Metabotropic glutamate receptor 5 (Homo sapiens, UniProt P41594) | < | 15 |
